This collection of values is drawn from patent US20110015248A1.

Kindly state melting point for each of the entries shown.
Quick note: give the figure in °C, leave out the unit.

Q. Please list melting point recorded for the compound CCCCCC(O)[C@H]1C(=O)N[C@](C(=O)SCC(=O)OC)([C@@H](O)[C@@H]2C=CCCC2)[C@@]1(C)O (stereo in doubt)
A. 75

Q. Please list melting point recorded for the compound CCCCCC(O)[C@H]1C(=O)N[C@](C(=O)SCCNC(C)=O)([C@@H](O)[C@@H]2C=CCCC2)[C@@]1(C)O (stereo in doubt)
A. 80

Q. Please list melting point recorded for the compound CCCCCC[C@H]1C(=O)N[C@](C(=O)SCCC(=O)OC)([C@@H](O)[C@@H]2C=CCCC2)[C@@]1(C)O [Example 12]
A. 64

---

Kindly state IC50 for each of the entries shown.
# system-name: Human red blood cell S20 proteasome (Homo sapiens)
# Construct: host or cells: human red blood cells (native tissue preparation)
# experimental-details: Proteasome inhibition assay
# Format: biochemical
Quick note: give the figure in nM, leave out the unit.

Q. Please list IC50 recorded for the molecule CCCCCC[C@H]1C(=O)N[C@](C(=O)SCCC(=O)OC)([C@@H](O)[C@@H]2C=CCCC2)[C@@]1(C)O [Example 12]
A. 0.2

Q. Please list IC50 recorded for the molecule CCCCCC[C@H]1C(=O)N[C@@]2([C@@H](O)[C@@H]3C=CCCC3)C(=O)O[C@@]12C [Example 1]
A. 1

---

Kindly state IC50 for each of the entries shown.
# system-name: Human red blood cell S20 proteasome (Homo sapiens, UniProt P28074)
# Construct: host or cells: human red blood cells (native tissue preparation)
# experimental-details: Proteasome inhibition assay
# Assay type: biochemical
# experimental-context: substrate Suc-Leu-Leu-Val-Tyr-MCA; room temperature; IC50 determined at initial velocity of the reaction; read-out: IC50
Quick note: give the figure in µM, leave out the unit.

Q. Please list IC50 recorded for the compound CCCCCC[C@H]1C(=O)N[C@](C(=O)SCc2ccccc2)([C@@H](O)C2CCCCC2)[C@@]1(C)O
A. 0.106

Q. Please list IC50 recorded for the compound CCCCCC(O)[C@H]1C(=O)N[C@](C(=O)O)(C(O)[C@@H]2C=CCCC2)[C@@]1(C)O (some centres unmarked)
A. 0.305

---

Entry flag: 1 if melting point reaches 100 °C; -1 if it does not.

Q. Evaluate CCCCCC[C@H]1C(=O)N[C@@]2([C@@H](O)C3CCCCC3)C(=O)O[C@@]12C (stereo in doubt) : melting point at minimum 100 °C?
A. 1

Q. Evaluate CCCCCC(O)[C@H]1C(=O)N[C@@]2(C(O)[C@@H]3C=CCCC3)C(=O)O[C@@]12C (some centres unmarked) : melting point at minimum 100 °C?
A. 1

Q. Evaluate CCCCCC[C@H]1C(=O)N[C@](C(=O)SCCNC(C)=O)([C@@H](O)[C@@H]2C=CCCC2)[C@@]1(C)O (stereo in doubt) : melting point at minimum 100 °C?
A. -1

Q. Evaluate CCCCCC[C@H]1C(=O)N[C@](C(=O)SC2CCCCC2)([C@@H](O)[C@@H]2C=CCCC2)[C@@]1(C)O (stereo in doubt) : melting point at minimum 100 °C?
A. -1

Q. Evaluate CCCCCC[C@H]1C(=O)N[C@](C(=O)SCc2ccccc2)([C@@H](O)[C@@H]2C=CCCC2)[C@@]1(C)O (stereo in doubt) : melting point at minimum 100 °C?
A. 1

Q. Evaluate CCCCCC[C@H]1C(=O)N[C@](C(=O)SCc2ccccc2)([C@@H](O)C2CCCCC2)[C@@]1(C)O : melting point at minimum 100 °C?
A. 1

Q. Evaluate CCCCCC[C@H]1C(=O)N[C@](C(=O)SCCC(=O)OC)([C@@H](O)C2CCCCC2)[C@@]1(C)O (stereo in doubt) : melting point at minimum 100 °C?
A. 1

Q. Evaluate CCCCCC(O)[C@H]1C(=O)N[C@](C(=O)SCc2ccccc2)([C@@H](O)[C@@H]2C=CCCC2)[C@@]1(C)O (stereo in doubt) : melting point at minimum 100 °C?
A. 1
